Assay: chemical genetic growth profiling, strain panel (AID 1159580);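 note: tested at 20 µM; growth read once vehicle control cultures reached saturation at 30 °C; 1 = growth at the plate median or of vehicle wells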
Conditions: S. cerevisiae deletion strains, growth OD, locus YLR342W, strain FKS1 (second series), stronger effect = lower value
The campaign covered roughly 5,500 compounds. About 2,000 (36%) were called active. Another 18% or so got no clear call; they are omitted. The list shows a part of the results.
measure.name: normalized growth
Could you respond with only the numeric value?

# molecule, normalized growth
rows = [
    ("O=c1oc2ccccc2cc1O", 1.04),
]

Prompt: # lookup: normalized growth of `Cc1onc(-c2ccccc2)c1-c1ccc(S(N)(=O)=O)cc1`
Completion: 1

Prompt: Fill blank: measured normalized growth of the molecule `Cc1nnc(NS(=O)(=O)c2ccc(N)cc2)s1` is ____.
Completion: 1.04

Prompt: I would be grateful if you could share the reported normalized growth for `Cc1oncc1C(=O)Nc1ccc(C(F)(F)F)cc1` .
Completion: 1.04

Prompt: State the recorded normalized growth for this entry: `COP(=S)(OC)Oc1ccc([N+](=O)[O-])cc1`
Completion: 0.998

Prompt: Fill in the blank: the reported normalized growth of Cc1cccc(C)c1NC(=O)C1CCCCN1C (stereo unspecified) is ____.
Completion: 1.03

Prompt: Param item = `Fc1ccc([C@@H]2CCNC[C@H]2COc2ccc3c(c2)OCO3)cc1` ; retrieve measured normalized growth.
Completion: 1.06

Prompt: What normalized growth value was documented for this molecule, C=NC(C(=O)NC1C(=O)N2C1SC(C)(C)C2C(=O)O)c1ccccc1 (stereo unspecified) ?
Completion: 1.03

Prompt: Looking for the measured normalized growth of CN(C)CCC(c1ccccc1)c1ccccn1 (stereo unspecified) , can you help?
Completion: 1.03

Prompt: Reported normalized growth, molecule NCC[C@@H](O)C(=O)N[C@@H]1C[C@H](N)[C@@H](O[C@H]2O[C@H](CN)[C@@H](O)[C@H](O)[C@H]2O)[C@H](O)[C@H]1O[C@H]1O[C@H](CO)[C@@H](O)[C@H](N)C1O (stereo partly specified) : ____
Completion: 0.966

Prompt: Given the entry Clc1ccc(C(c2ccccc2Cl)C(Cl)Cl)cc1 (stereo unspecified) , report its measured normalized growth.
Completion: 1

====

Assay: chemical genetic growth profiling, strain panel (AID 1159580)
Settings: S. cerevisiae deletion strains, growth OD, locus YDR159W, strain sac3, stronger effect = lower value
The whole screen tested about 5,500 compounds, of which about 2,000 (36%) were called active. Not shown: some 18% with an inconclusive outcome. Some of the results follow.
Define the label as fulfilled when normalized growth is strictly less than 1 and as not fulfilled in all remaining cases.

# compound, assigned.label
rows = [
    ("CC(C)/C(O)=C1/C(=O)O[C@@H](c2ccoc2)[C@]2(C)C(O)[C@@H](O)[C@@]34OC5(C)OC67CC(C)(C(O)[C@]6(O)[C@@H](O)[C@]3(O5)C12)[C@H](CC(=O)O)[C@]74C (some centres not stated)", "not fulfilled"),
    ("O=c1oc2ccccc2cc1O", "not fulfilled"),
    ("CCCCC(=O)O[C@]1(C(=O)CO)CCC2C3CCC4=CC(=O)CC[C@]4(C)C3[C@@H](O)C[C@@]21C (some centres not stated)", "fulfilled"),
    ("Clc1ccc(C(Cn2ccnc2)OCc2ccsc2Cl)c(Cl)c1 (configuration not stated)", "fulfilled"),
    ("C1N2CN3CN1CN(C2)C3", "not fulfilled"),
    ("C[C@@H]1CC[C@H]2C(C)(C)C3CC12CC[C@@]3(C)O (some centres not stated)", "fulfilled"),
    ("Clc1ccccc1CN1CCc2sccc2C1", "not fulfilled"),
    ("c1ccc2c(CC3=NCCN3)cccc2c1", "fulfilled"),
]

Prompt: hey, is normalized growth for `NCCCCC(=O)O` lower than 1 or not?
Completion: not fulfilled

Prompt: Please let me know if `Cc1ccc(C(=O)c2ccc(CC(=O)O)n2C)cc1` shows normalized growth below 1.
Completion: fulfilled

====

Assay: chemical genetic growth profiling, strain panel (AID 1159580)
Conditions: S. cerevisiae deletion strains, growth OD, locus YER015W, strain faa2
The campaign covered roughly 5,500 compounds. About 2,000 (36%) were called active. Inconclusive results (about 18%) are left out. Cut-off read from the data, not from the text of the source: active = normalized growth mostly below about 0.91 (no sharp cut-off); inconclusive = no clear call, values can overlap the other calls; inactive = mostly above about 0.92. The list shows a part of the results.
Could you please pick one outcome from this set? TRUE for active, FALSE for inactive

The examples below pair each entry with its known result.
# compound, assigned.label
rows = [
    ("Clc1ccc(CSC(Cn2ccnc2)c2ccc(Cl)cc2Cl)cc1 (stereo unspecified)", "TRUE"),
    ("Clc1ccc(COC(Cn2ccnc2)c2ccc(Cl)cc2Cl)cc1 (stereo unspecified)", "TRUE"),
    ("Clc1ccc(CO/N=C(/Cn2ccnc2)c2ccc(Cl)cc2Cl)c(Cl)c1", "TRUE"),
    ("Clc1ccc(COC(Cn2ccnc2)c2ccc(Cl)cc2Cl)c(Cl)c1 (stereo unspecified)", "TRUE"),
    ("COC(=O)C1=COC(C)C2CN3CCC4(C(=O)Nc5ccccc54)C3CC12 (stereo unspecified)", "FALSE"),
    ("CC(C)(S)[C@@H](N)C(=O)O", "FALSE"),
    ("C=C[C@@]1(C)CC(=O)[C@@]2(O)[C@](C)(O1)[C@@H](OC(C)=O)[C@@H](O)C1C(C)(C)CC[C@H](O)[C@@]12C (stereo partly specified)", "FALSE"),
    ("COc1cc(C)c2c(=O)cc(-c3ccccc3)oc2c1", "FALSE"),
]

Prompt: Please indicate how the test categorized O=C(O)C(O)C(O)C(=O)O (stereo unspecified) .
Completion: FALSE

Prompt: Hello, I am checking results. What call was entered for NC(=O)CS(=O)C(c1ccccc1)c1ccccc1 (stereo unspecified) ?
Completion: FALSE

Prompt: I'd appreciate the recorded outcome for `C[C@H]1C[C@@H](O)[C@]2(O)[C@@]13CC(=O)OC[C@@]2(C)[C@](C)(O)C(=O)C3` from this test.
Completion: FALSE

====

Experiment: chemical genetic growth profiling, strain panel (AID 1159580);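 note: tested at 20 µM; growth read once vehicle control cultures reached saturation at 30 °C; 1 = growth at the plate median or of vehicle wells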
Details: S. cerevisiae deletion strains, growth OD, locus YML032C, strain rad52, stronger effect = lower value
The campaign covered roughly 5,500 compounds. About 2,000 (36%) were called active. Another 18% or so got no clear call; they are omitted. This is one part of the list.
Please use true (1) for normalized growth under 1 and false (0) for everything else, ties included.

Worked examples, 3 molecules total:
# molecule, assigned.label
records = [
    ("COc1cc(C)c2c(=O)cc(-c3ccccc3)oc2c1", "true (1)"),
    ("COc1ccc2c(c1)OCC(Cc1ccc(OC)c(O)c1)C2=O (stereo not given)", "true (1)"),
    ("COc1ccc(-c2cc(=O)c3c(OC)cc(OC)cc3o2)cc1", "true (1)"),
]

Alright, here's another molecule for you.
Prompt: Please let me know if CCCCCCCCCCCC(=O)OCC(COP(=O)(O)OCC(O)COP(=O)(O)OCC(COC(=O)CCCCCCCCCCC)OC(=O)CCCCCCCCCCC)OC(=O)CCCCCCCCCCC (stereo not given) shows normalized growth below 1.
Completion: false (0)

====

Assay: chemical genetic growth profiling, strain panel (AID 1159580);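 note: tested at 20 µM; growth read once vehicle control cultures reached saturation at 30 °C; 1 = growth at the plate median or of vehicle wells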
Conditions: S. cerevisiae deletion strains, growth OD, locus YPL241C, strain CIN2, stronger effect = lower value
About 2,000 (36%) of roughly 5,500 compounds were called active. About 18% were inconclusive and are not listed. The list shows a part of the results.
measure.name: normalized growth
A bare number is all that is needed in reply.

Below, 6 compounds whose answers are already recorded.
# compound, reported
data = [
    ("Cc1cc(CC(=O)O)n(C)c1C(=O)c1ccc(Cl)cc1", 0.996),
    ("Cc1ccc(C(=O)c2ccc(CC(=O)O)n2C)cc1", 1),
    ("COc1ccc2c(c1)c(CC(=O)O)c(C)n2Cc1ccc(Cl)cc1", 0.994),
    ("NCCCCNCCCN", 0.997),
    ("Clc1ccc(C(c2ccccc2Cl)C(Cl)Cl)cc1 (stereo not drawn)", 1.01),
    ("O=C(O)COc1ccc(Cl)cc1Cl", 1.01),
]

Turning to the following compound.
Prompt: Find the recorded normalized growth belonging to Cc1onc(-c2ccccc2Cl)c1C(=O)N1CCCN2C(=O)c3ccccc3C21 (stereo not drawn) and report it.
Completion: 0.987

====

Assay: chemical genetic growth profiling, strain panel (AID 1159580);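 note: tested at 20 µM; growth read once vehicle control cultures reached saturation at 30 °C; 1 = growth at the plate median or of vehicle wells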
Settings: S. cerevisiae deletion strains, growth OD, locus YGL253W, strain hxk2, stronger effect = lower value
Among all 5,500 compounds or so, about 2,000 (36%) were called active. Roughly 18% stayed inconclusive and do not appear here. The list shows a part of the results. Where a SMILES comes first, the peptide text is derived from it.
Measured normalized growth by item
Give the figure by itself; no unit, no explanation.

# molecule, normalized growth
rows = [
    ("CN(C)CCC(c1ccccc1)c1ccccn1 (stereo unspecified)", 1.02),
]

Prompt: GET /values?readout=normalized growth&item= `COc1ccc(-c2oc3cc(OC)c(OC)c(OC)c3c(=O)c2OC)cc1OC`
Completion: 0.92

Prompt: # query: normalized growth of entry `NCCCCCC(=O)O`
Completion: 1

Prompt: Using the record for CC(=O)N[C@@H](CC(=O)O)C(=O)N[C@@H](CCC(=O)O)C(=O)O (Ac-Asp-Glu-OH) , report its normalized growth.
Completion: 1.02

Prompt: What value of normalized growth has been recorded for this entry: C[C@@H]1CC[C@H]2C(C)(C)C3CC12CC[C@@]3(C)O (stereo partly specified)
Completion: 0.897

Prompt: Fill in: normalized growth of `CN1CCC[C@@H]1CCO[C@](C)(c1ccccc1)c1ccc(Cl)cc1` is ___
Completion: 0.916

Prompt: Bench note: what normalized growth did `NCCCCC(=O)O` show?
Completion: 1.01

Prompt: Which normalized growth value belongs to COC1C=CC23c4cc5c(cc4CN(CC2O)[C@@H]3C1)OCO5 (stereo partly specified) ?
Completion: 0.951

Prompt: Could you tell me which normalized growth is on file for CC1CCC(NC(=O)N(CCCl)N=O)CC1 (stereo unspecified) ?
Completion: 0.771

Prompt: Quick check: normalized growth of CC(=O)Oc1c2c(c3c(c1CC=C(C)C)O[C@]14C(=C[C@@H]5CC1C(C)(C)OC4(C/C=C(\C)C(=O)O)C5=O)C3=O)OC(C)(CCC=C(C)C)C=C2 (stereo partly specified) ?
Completion: 0.967

Prompt: Need normalized growth, item `COc1ccc2oc3ccccc3c(=O)c2c1`
Completion: 0.74
